In this section we review reported growth values for a set of compounds.
system: HOP-62 NSCLC; assay: NCI-60 one-dose screen, 48 h (100 = growth as untreated, 0 = no growth, -100 = all killed); details: 10 µM unless noted
The panel holds about 83,000 compounds, 20% with a hit somewhere; the sample as a whole holds those more often.
Report the figure in % without appending any unit label.

NS(=O)(=O)c1ccc(Nc2nc(SCC(=O)c3ccc(Cl)cc3)nc3c2CCCC3)cc1 = 70
Cc1ccc2c(c1)Oc1nc(N)c(C#N)c(N)c1C2Sc1ccc(F)cc1 (stereo not given) = -86.3
Cc1ccc(-c2nnc(SCc3ccc(O)c4ncccc34)n2-c2ccccc2)cc1 = 10.6
Nc1ncc(-c2ccc(NS(=O)(=O)c3ccc(Cl)c(Cl)c3)cc2)[nH]1 = 113
N#Cc1cnc2ccc(-c3cnc(N)nc3)cc2c1N1CCc2cc(F)c(Cl)cc21 = 2.88
COC(=O)C[Se]C(=O)Cc1c(C)n(C(=O)c2ccc(Cl)cc2)c2ccc(OC)cc12 = 25.4
COc1cc(OC)c(S(N)(=O)=O)cc1C(C)=O = 113
Cc1nn(-c2ccccc2)c2ncnc(N/N=C/c3ccccc3O)c12 = 10.2
COc1cc(OC)c(S(N)(=O)=O)cc1C(=O)/C=C/c1ccc(Cl)cc1 = 9.71
COc1ccccc1-n1cc(C#N)c(N)c1C(=O)c1ccc(Br)cc1 = 63.5

Ask: Write down the reported growth (system: HOP-62 NSCLC) of Cc1ccc(-n2cc(/C=C/C(=O)c3ccc(O)cc3)c(-c3ccc(S(C)(=O)=O)cc3)n2)cc1
Result: 76

Ask: Write down the reported growth (system: HOP-62 NSCLC) of COc1ccc(NC(=O)CSc2nnc(-c3ccc4nc(-c5ccccc5)[nH]c4c3)o2)cc1
Result: 101

Ask: Write down the reported growth (system: HOP-62 NSCLC) of COc1cc(/C=N/NC(=O)c2cn(C3CC3)c3c(OC)c(N4CC5CCCNC5C4)c(F)cc3c2=O)ccc1O (stereo not given)
Result: 96

----------
system: SF-295 CNS; assay: NCI-60 one-dose screen, 48 h (100 = growth as untreated, 0 = no growth, -100 = all killed); conditions: 10 µM unless noted
This is part of a sample that, as a whole, favours compounds with a hit. Of some 83,000 tested, about 20% had one in any assay.
Could you mark each record Criterion met if its growth falls strictly under 50%, and Criterion not met if it equals or exceeds it?

Worked cases, answers included:
Cc1ccc(-n2cc(/C=N/NC(=O)c3ccncc3)c(-c3ccc(S(C)(=O)=O)cc3)n2)cc1 = Criterion not met
Cc1cccc2c3c(sc12)C(c1ccc(F)cc1)C(C#N)=C(/N=C/c1ccc(Cl)cc1)O3 (stereo not drawn) = Criterion met
O=C(c1ccc(Cl)cc1)C1[C@H](c2ccc(Cl)cc2)[C@@H](c2ccccc2)NC12C(=O)Nc1ccccc12 (stereo partly drawn) = Criterion met
COc1ccc(C2CC(c3cccc(Nc4nc(Cl)nc5cc(OC)c(OC)cc45)c3)=Nc3c(N)nc(N)nc3N2)cc1 (stereo not drawn) = Criterion not met
O=C(O)c1ccc(-n2cc(CNc3cc(F)c(F)c(F)c3)c(-c3ccc(F)cc3)n2)cc1 = Criterion not met
CCNC(=O)N1CCc2cc(OC)c(OCCc3ccc(OC)cc3)cc2C1c1ccc([N+](=O)[O-])cc1C (stereo not drawn) = Criterion met

# input for lookup
Ask: Just wondering, is growth of COc1cc(OC)c(/C=C/S(=O)(=O)Cc2ccc(OC)c(NCC(=O)NO)c2)c(OC)c1 below 50%?
Result: Criterion met

----------
system: MDA-MB-435 melanoma; assay: NCI-60 one-dose screen, 48 h (100 = growth as untreated, 0 = no growth, -100 = all killed); settings: 10 µM unless noted
This is part of a sample that, as a whole, favours compounds with a hit. Of some 83,000 tested, about 20% had one in any assay.
RECORDED_METRIC: growth (%)
Report the figure in % without appending any unit label.

These recorded examples may help you get a feel for the data.
CNC(=O)c1cc(-c2ccc(NS(=O)(=O)c3ccc(C)cc3)cc2)nc2cccnc12 = 109
O=C(NNc1nc2cc(F)ccc2n2c(CN3CC4CNCC4C3)ccc12)c1cnccn1 (configuration not stated) = 26.1
COc1cc(/C=C2\C(=O)Nc3cc(Cl)ccc32)ccc1OCc1ccc(F)cc1 = 103
C=C(C=O)[C@@H]1CC[C@]2(CO)CC[C@]3(C)[C@H](CC[C@@H]4[C@@]5(C)CCCNC(C)(C)[C@@H]5CC[C@]43C)[C@@H]12 = 76.3
CC(C)C[C@@H]1N[C@@]2(C(=O)Nc3ccccc32)[C@@H](c2ccc(F)cc2)[C@@H]1C(=O)c1ccc(O)cc1 = 102

Ask: Please list growth recorded for the molecule CC(C)(C)CC(C)(C)n1nnnc1C(Nc1nccs1)c1cc2cccc3ccc4cccc1c4c32 (configuration not stated)
Result: 102

Ask: Please list growth recorded for the molecule CCOC(=O)C(=O)CC(=O)N1C(=S)NC(=O)C1CC(C)C (configuration not stated)
Result: 99.9

Ask: Please list growth recorded for the molecule CCC(NC(c1cc2cccc3ccc4cccc1c4c32)c1nnnn1C(C)(C)C)C1CCCCC1 (configuration not stated)
Result: 60

Ask: Please list growth recorded for the molecule Cc1nn(-c2ccccc2)c2ncnc(N/N=C/c3ccccc3)c12
Result: 96.9

Ask: Please list growth recorded for the molecule CC1=CC(=O)C2=C(C)CC(OC(=O)CCc3ccccc3)[C@@H]3[C@H](OC(=O)[C@@H]3C)[C@@H]12 (some centres not stated)
Result: 93.3

Ask: Please list growth recorded for the molecule CS(=O)(=O)c1ccc(-n2cc(/C=N/O)c(-c3ccccc3)n2)cc1
Result: 85.9

Ask: Please list growth recorded for the molecule N#Cc1c(NC(=O)c2cccc(C(F)(F)F)c2F)sc2c1CCC(=O)C2
Result: -30.5

Ask: Please list growth recorded for the molecule NC(N)=Nc1ccc(Oc2cccc(NC(N)=Nc3ccc(Cl)c(C(F)(F)F)c3)c2)cc1
Result: 62.9

Ask: Please list growth recorded for the molecule Cn1ccnc1C(=O)/C=C/c1ccc(CNC(=O)c2ccc(F)cc2)cc1
Result: 44.1

Ask: Please list growth recorded for the molecule CCOC(=O)c1c(N)c(C#N)cn1-c1cc(OC)c(OC)c(OC)c1
Result: 103

Ask: Please list growth recorded for the molecule Cc1ccc(-n2c(/C=C3\C(=O)Nc4ccccc43)ccc2CO)cc1
Result: -10.3

Ask: Please list growth recorded for the molecule CCn1c(SCC(=O)Nc2cccc(C(=O)/C=C/c3ccccc3Cl)c2)nc2ccccc2c1=O
Result: 98.6

Ask: Please list growth recorded for the molecule CCNC(=O)N1CCc2cc(OC)c(OCCc3ccc(OC)cc3)cc2C1c1ccc(OC)cc1C (configuration not stated)
Result: 11.4

Ask: Please list growth recorded for the molecule Nc1nc(N)c2c(n1)NC(c1ccc(C(F)(F)F)cc1)CC(c1ccc(Nc3nc(NCCO)nc(N4CCOCC4)n3)cc1)=N2 (configuration not stated)
Result: 65.9

Ask: Please list growth recorded for the molecule Cc1cc(C)n(C(=O)c2sc(=S)n(-c3ccccc3)c2N=Nc2c(N)n[nH]c2N)n1
Result: 104

Ask: Please list growth recorded for the molecule Nc1ccccc1NC(=O)c1ccc(NC(=O)C/C=C/c2cccnc2)cn1
Result: 19

----------
tested on: SR leukemia; assay: NCI-60 one-dose screen, 48 h (100 = growth as untreated, 0 = no growth, -100 = all killed); conditions: 10 µM unless noted
This is part of a sample that, as a whole, favours compounds with a hit. Of some 83,000 tested, about 20% had one in any assay.
In this section we review reported growth values for a set of compounds.
Report the figure in % without appending any unit label.

C=CC(=O)N1CC=C(c2cc3c(N[C@H](C)c4ccccc4)ncnc3[nH]2)CC1 = 66.7

Ask: Please list growth recorded for the compound CN1CCN(Cc2ccc(NC(=O)c3cncc(C#Cc4cnc5ccc(N6CCN(C)CC6)nn45)c3)cc2C(F)(F)F)CC1
Result: -52.2

Ask: Please list growth recorded for the compound O=C(NCc1ncc[nH]1)c1ccc(-c2nc3ccc4[nH]ncc4c3c3c2CCCC3)cc1
Result: -52.6

Ask: Please list growth recorded for the compound NC(N)=Nc1ccc(Oc2cccc(Nc3ccc(Cl)c(C(F)(F)F)c3)c2)cc1
Result: -26.4

Ask: Please list growth recorded for the compound CC[C@]12C=CCN3CC[C@@]4(c5cc(NC(=O)COc6cc(O)c7c(=O)cc(-c8ccccc8)oc7c6)c(OC)cc5N(C)[C@H]4[C@@](O)(C(=O)OC)[C@@H]1OC(C)=O)[C@@H]32
Result: -30.7

----------
tested on: MALME-3M melanoma; test: NCI-60 one-dose screen, 48 h; conditions: 10 µM unless noted
Compounds without any hit were thinned out: in the full panel of roughly 83,000, 20% have a hit. Activity calls are given as the source filed them. How the source made its calls: active means growth percent below 10; inactive means the rest.
Form entry, call: pick from TRUE for active, FALSE for inactive

Worked cases, answers included:
CCCCCc1ccc(S(=O)(=O)Nc2cccc(-c3csc(NC(=O)CNCCN(C)C)n3)c2)cc1 = FALSE
CN1CCN(Cc2ccc(NC(=O)c3cncc(C#Cc4cnn5cccnc45)c3)cc2C(F)(F)F)CC1 = TRUE
NC(N)=Nc1ccc(Oc2cccc(NC(N)=Nc3ccc(Cl)c(C(F)(F)F)c3)c2)cc1 = FALSE
CN1CCN(Cc2ccc(NC(=O)c3cncc(C#Cc4cnc5ccc(OCC6(C)COC6)nn45)c3)cc2C(F)(F)F)CC1 = TRUE
C[C@@H]1C[C@H]2C(=O)O[C@@H](C)C(NC(=O)[C@H](Cc3cc(F)cc(F)c3)NC(=O)Nc3ccc(Cl)cc3F)C(=O)N3CCC[C@H]3C(=O)N3CCCC[C@H]3C(=O)N[C@@H](CO)C(=O)N2C1 (stereo partly drawn) = FALSE

Ask: Tell me the assay call for Cc1noc(C)c1CSc1nc2ccccc2n1-c1ccccc1 please.
Result: FALSE

Ask: Tell me the assay call for Clc1nc2ccccc2nc1-c1nnc(C2CCCCC2)o1 please.
Result: FALSE

Ask: Tell me the assay call for O=C(CSc1nc2ccccc2c(=O)n1-c1ccc(Cl)cc1)N/N=C/c1ccc(N2CCCCC2)cc1 please.
Result: FALSE
